Taken from patent US7160992B2.

biological target: RRE IIB RNA; test: Fluorescence anisotropy: RhdRev binding and AAC competition for RRE IIB RNA; details: competition of AACs with RhdRev (10 nM) for RRE IIB RNA (20 nM) binding, 85 mM NaCl
pKd: −log10 of the molar value.

{"compound": "CC(=O)O.N=C(N)NCCCC(N)C(=O)NCC1OC(OC2C(N)CC(N)C(O)C2O)C(N)C(O)C1O (stereo not drawn) [NeamR1, argininamido-neamine conjugate]", "pKd": 6.63}
{"compound": "CC(=O)O.N=C(N)NCCCC(N)C(=O)NCC1OC(OC2C(CO)OC(OC3C(O)C(N)CC(N)C3OC3OC(CO)C(O)C(O)C3N)C2O)C(N)C(O)C1O (stereo not drawn) [ParomR1, argininamido-paramomycin conjugate]", "pKd": 6.59}
{"compound": "CC(=O)O.N=C(N)NCCCC(N)C(=O)NCC1OC(OC2C(CO)OC(OC3C(O)C(N)CC(N)C3OC3OC(CNC(=O)C(N)CCCNC(=N)N)C(O)C(O)C3N)C2O)C(N)C(O)C1O (stereo not drawn) [NeoR2, diargininamido-neomycin B conjugate]", "pKd": 6.95}
